The values you see were collected from ChEMBL document CHEMBL2311483.

- experimental protocol: Cytotoxicity against human HuH7 cells after 72 hrs by Alamar blue assay
- Type: cell-based, Huh-7
// values below are reported CC50 at 72 h
endpoint: CC50 at 72 h

# compound structure string, result
rows = [
    ("O=C(Nc1ccc(-c2c[nH]nc2-c2ccc(NC(=O)[C@@H]3CCCN3C(=O)Cc3ccccc3)cc2)cc1)[C@@H]1CCCN1C(=O)Cc1ccccc1", "> 10 µM"),
    ("O=C(Nc1ccc(-c2coc(-c3ccc(NC(=O)[C@@H]4CCCN4C(=O)Cc4ccccc4)cc3)n2)cc1)[C@@H]1CCCN1C(=O)Cc1ccccc1", "> 10 µM"),
    ("O=C(Nc1cccc(CN2CCc3ccc(NC(=O)[C@@H]4CCCN4C(=O)Cc4ccccc4)cc3C2)c1)[C@@H]1CCCN1C(=O)Cc1ccccc1", "> 10 µM"),
]

----------
- experimental protocol: Solubility of the compound in phosphate buffer at pH 6.5
- Type: physicochemical
endpoint: solubility (µg/mL)

# compound, endpoint, unit string, result
rows = [
    ("CN1Cc2cc(NC(=O)[C@@H]3CCCN3C(=O)Cc3ccccc3)ccc2CC1c1ccc(NC(=O)[C@@H]2CCCN2C(=O)Cc2ccccc2)cc1 (mixture of isomers)", "solubility", "µg/mL", 135),
    ("O=C(Nc1ccc([C@H]2C[C@@H]2c2ccc(NC(=O)[C@@H]3CCCN3C(=O)Cc3ccccc3)cc2)cc1)[C@@H]1CCCN1C(=O)Cc1ccccc1", "solubility", "µg/mL", 3),
]
